B1: Zinc finger homeobox protein 3, residues 2147 to 2202; numbered along this chain, Q15911 (parent)
chain: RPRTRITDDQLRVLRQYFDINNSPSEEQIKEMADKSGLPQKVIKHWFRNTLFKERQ

Variants of: B1
Assay: abundance fitness (aPCA) (normalised: wild type 0, dead -1); higher = more abundant; growth selection in yeast, the domain comes from the species named
Details: Homo sapiens
Rule: satisfied for abundance fitness not less than -0.1, not satisfied for anything less.

The following variants have reported results that may help.
Does abundance fitness meet or surpass -0.1 for K30L ? not satisfied

Does abundance fitness meet or surpass -0.1 for L38I ? not satisfied

Does abundance fitness meet or surpass -0.1 for K41L ? satisfied

Does abundance fitness meet or surpass -0.1 for P24W ? not satisfied

Does abundance fitness meet or surpass -0.1 for L11M ? satisfied

Does abundance fitness meet or surpass -0.1 for H45A ? satisfied

Continuing:
Does abundance fitness meet or surpass -0.1 for Q56P ? not satisfied

Does abundance fitness meet or surpass -0.1 for S23L ? not satisfied
